Kindly supply the reported % binding at 4.1 ng/ml values for the records listed here.
tested.target: T1, CLL-1 on U937 cells (human, UniProt Q5QGZ9 1-265)
T1 construct: whole, on cells; also called CLEC12A; Clec12A
T1 sequence: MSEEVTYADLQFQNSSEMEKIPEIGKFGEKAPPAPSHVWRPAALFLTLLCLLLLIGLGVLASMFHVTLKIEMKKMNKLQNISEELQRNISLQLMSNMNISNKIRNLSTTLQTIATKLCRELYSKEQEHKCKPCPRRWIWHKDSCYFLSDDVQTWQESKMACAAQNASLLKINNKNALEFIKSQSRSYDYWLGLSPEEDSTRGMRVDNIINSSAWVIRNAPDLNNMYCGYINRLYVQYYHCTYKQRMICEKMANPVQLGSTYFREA
experiment.summary: flow cytometry on U937 cells, VHH in 3-fold dilutions, detected with a-His-PE; percent of cells positive
Kindly provide the numeric value in % only, without the unit symbol.

Input: % binding at 4.1 ng/ml lookup needed for VHH clone 2H3 (VHH, Includes myc and His tags; also called 2H3 VHH-Myc-His; VHH 2H3) VHH: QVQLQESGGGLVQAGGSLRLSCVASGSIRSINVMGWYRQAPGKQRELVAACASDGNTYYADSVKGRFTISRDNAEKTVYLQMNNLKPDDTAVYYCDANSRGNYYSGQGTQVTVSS , thanks.
Output: 33.5

Input: % binding at 4.1 ng/ml lookup needed for VHH clone 2F5 (VHH, Includes myc and His tags) VHH: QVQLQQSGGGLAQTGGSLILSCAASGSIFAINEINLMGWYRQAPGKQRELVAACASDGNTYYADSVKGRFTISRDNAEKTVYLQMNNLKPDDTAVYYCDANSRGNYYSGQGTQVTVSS , thanks.
Output: 24.2

Input: % binding at 4.1 ng/ml lookup needed for VHH clone 1H1 (VHH, includes myc and His tags; also called 2F4) VHH: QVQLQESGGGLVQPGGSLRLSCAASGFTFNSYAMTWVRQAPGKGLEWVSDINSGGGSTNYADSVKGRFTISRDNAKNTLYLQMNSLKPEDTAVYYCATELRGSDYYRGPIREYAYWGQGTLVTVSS , thanks.
Output: 0.7

Input: % binding at 4.1 ng/ml lookup needed for VHH clone 1G6 (VHH, includes myc and His tags; also called 2G11; 2H2) VHH: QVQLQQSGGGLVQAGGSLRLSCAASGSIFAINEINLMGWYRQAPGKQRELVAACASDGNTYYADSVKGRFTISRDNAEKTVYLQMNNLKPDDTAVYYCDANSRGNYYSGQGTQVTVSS , thanks.
Output: 26.8

The values you see were collected from patent US20220112292A1.
